FYI, the data here is from patent US20150246947A1.

Form field: IC50 (one value per entry).
assay-system: T1, human Protein S (UniProt P07225 42-676)
T1 chain: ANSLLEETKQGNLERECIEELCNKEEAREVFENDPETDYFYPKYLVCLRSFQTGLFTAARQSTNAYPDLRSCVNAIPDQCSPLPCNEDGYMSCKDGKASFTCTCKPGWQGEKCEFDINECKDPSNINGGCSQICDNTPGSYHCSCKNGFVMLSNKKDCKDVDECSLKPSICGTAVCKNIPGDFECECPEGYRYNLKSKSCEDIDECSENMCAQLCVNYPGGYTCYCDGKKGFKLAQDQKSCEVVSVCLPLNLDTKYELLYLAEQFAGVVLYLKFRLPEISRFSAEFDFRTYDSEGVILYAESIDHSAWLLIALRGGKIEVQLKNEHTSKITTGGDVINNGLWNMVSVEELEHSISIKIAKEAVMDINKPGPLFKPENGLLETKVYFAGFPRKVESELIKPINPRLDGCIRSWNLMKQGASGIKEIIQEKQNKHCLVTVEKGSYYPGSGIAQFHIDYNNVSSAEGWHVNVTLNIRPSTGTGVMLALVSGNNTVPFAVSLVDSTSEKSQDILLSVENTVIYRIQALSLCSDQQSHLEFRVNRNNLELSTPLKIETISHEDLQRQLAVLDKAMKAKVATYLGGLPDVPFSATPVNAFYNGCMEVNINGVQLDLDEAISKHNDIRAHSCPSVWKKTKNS
test-details: LANCE competition
Enter your answer as a number in nM; do not include the unit.

Consider the worked cases shown below.
# get_value(readout='IC50', item= Ac-GLVSAGWYDYNFDHYREF-NH2 [JBS3182] )
20.9

# get_value(readout='IC50', item= MEYYVSAGWYDYNTDTYYEFE [JBS3215] )
0.8

Please examine the following record next.
# get_value(readout='IC50', item= CGLVSAGWYDYNCDHYREFT [JBS3170] )
206
